test: self-splicing fitness, log relative to wild type (ln ratio); higher = more splicing; Tetrahymena group I intron in knt gene, E. coli kanamycin selection, DiMSum; sequences stand for … in CUCUCU…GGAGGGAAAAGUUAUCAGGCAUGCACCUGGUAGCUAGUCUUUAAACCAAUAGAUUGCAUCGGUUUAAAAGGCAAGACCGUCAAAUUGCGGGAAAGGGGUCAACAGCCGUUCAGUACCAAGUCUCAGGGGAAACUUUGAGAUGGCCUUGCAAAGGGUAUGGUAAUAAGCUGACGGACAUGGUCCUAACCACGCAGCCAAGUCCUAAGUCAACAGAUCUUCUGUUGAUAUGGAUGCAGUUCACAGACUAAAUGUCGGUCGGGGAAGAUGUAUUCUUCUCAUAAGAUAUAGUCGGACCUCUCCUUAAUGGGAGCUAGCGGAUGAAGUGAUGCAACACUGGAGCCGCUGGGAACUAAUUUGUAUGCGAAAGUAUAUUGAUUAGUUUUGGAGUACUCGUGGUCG; details: 30 °C;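 note: selection with 25 µg/mL kanamycin versus none on LB agar overnight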
measurement-name: self-splicing fitness (ln)

// below: answered sequences
AGUCAGCAAUAUUACGUCUG
-2.2
CCUUAGCAAUAUUACGGACC
-2.33
AUUAAGCAAUAUUACGUGGU
-2.42
AUGUAGCAAUAUUACGGUAG
-4.38
CUAUAGCAAUAUUACGGUAU
-4.43

Q) Please list self-splicing fitness (ln) recorded for the sequence GGUCAGCAAUAUUACGCUAU
A) -1.32

Q) Please list self-splicing fitness (ln) recorded for the sequence AUGGAGCAAUAUUACGACAG
A) -2.74

Q) Please list self-splicing fitness (ln) recorded for the sequence AAAAAGCAAUAUUACGCCGC
A) -2.19

Q) Please list self-splicing fitness (ln) recorded for the sequence GAUAAGCAAUAUUACGAGUU
A) -2.26

Q) Please list self-splicing fitness (ln) recorded for the sequence CAACAGCAAUAUUACGACAG
A) -0.131

Q) Please list self-splicing fitness (ln) recorded for the sequence UGCGAGCAAUAUUACGAGGC
A) -2.74

Q) Please list self-splicing fitness (ln) recorded for the sequence GGCGAGCAAUAUUACGGGAG
A) -3.99

Q) Please list self-splicing fitness (ln) recorded for the sequence AAAGAGCAAUAUUACGAUCG
A) -2.55

Q) Please list self-splicing fitness (ln) recorded for the sequence GAGGAGCAAUAUUACGCACA
A) -1.61

Q) Please list self-splicing fitness (ln) recorded for the sequence GAUGAGCAAUAUUACGCCAU
A) -2.56

Q) Please list self-splicing fitness (ln) recorded for the sequence GCCCAGCAAUAUUACGCUCU
A) 0.00415
